- System: VchαCA
- testProtocol: biochemical
- Format: biochemical
- conditionLabel: selectivity index hCA I over VchαCA
Response field label takes met when SI [ KI hCA I/KI VchαCA ] is strictly below 0.8 and not met in all other cases.

Answer whether the molecule CC(C)N1CCN(c2ccc(S(N)(=O)=O)cc2)C1=O [10c] has SI [ KI hCA I/KI VchαCA ] strictly less than 0.8 not met

Answer whether the molecule NS(=O)(=O)c1ccc(NC(=O)CNc2ccccc2)cc1 has SI [ KI hCA I/KI VchαCA ] strictly less than 0.8 not met

Answer whether the molecule Cc1ccc(N2CCN(c3ccc(S(N)(=O)=O)cc3)C2=O)cc1 has SI [ KI hCA I/KI VchαCA ] strictly less than 0.8 met

Answer whether the molecule NS(=O)(=O)c1cccc(N2CCN(c3ccccc3)C2=O)c1 [11c] has SI [ KI hCA I/KI VchαCA ] strictly less than 0.8 not met

Answer whether the molecule NS(=O)(=O)c1ccc(NC(=O)CNc2ccccc2F)cc1 has SI [ KI hCA I/KI VchαCA ] strictly less than 0.8 met

Answer whether the molecule Cc1cccc(NCCNc2ccc(S(N)(=O)=O)cc2)n1 has SI [ KI hCA I/KI VchαCA ] strictly less than 0.8 not met

Answer whether the molecule CCCCNCCNc1ccc(S(N)(=O)=O)cc1 has SI [ KI hCA I/KI VchαCA ] strictly less than 0.8 not met

Answer whether the molecule NS(=O)(=O)c1ccc(N2CCN(c3ccc(Cl)cc3)C2=O)cc1 has SI [ KI hCA I/KI VchαCA ] strictly less than 0.8 not met

Answer whether the molecule NS(=O)(=O)c1ccc(N2CCN(Cc3ccccc3)C2=O)cc1 has SI [ KI hCA I/KI VchαCA ] strictly less than 0.8 not met

Answer whether the molecule CC(C)NCCNc1ccc(S(N)(=O)=O)cc1 [10a] has SI [ KI hCA I/KI VchαCA ] strictly less than 0.8 not met

Answer whether the molecule NS(=O)(=O)c1cccc(NC(=O)CNc2ccc(Cl)cc2)c1 [13b] has SI [ KI hCA I/KI VchαCA ] strictly less than 0.8 not met

Answer whether the molecule NS(=O)(=O)c1ccc(NCCNc2ccccc2)cc1 has SI [ KI hCA I/KI VchαCA ] strictly less than 0.8 met

Answer whether the molecule CCCCNCC(=O)Nc1cccc(S(N)(=O)=O)c1 [15b] has SI [ KI hCA I/KI VchαCA ] strictly less than 0.8 not met

Answer whether the molecule NS(=O)(=O)c1ccc(N2CCN(c3ccccc3Br)C2=O)cc1 has SI [ KI hCA I/KI VchαCA ] strictly less than 0.8 met

Answer whether the molecule CC(C)NCC(=O)Nc1ccc(S(N)(=O)=O)cc1 [10b] has SI [ KI hCA I/KI VchαCA ] strictly less than 0.8 not met

Answer whether the molecule NS(=O)(=O)c1ccc(NCCNCc2ccccc2)cc1 has SI [ KI hCA I/KI VchαCA ] strictly less than 0.8 not met

Answer whether the molecule NS(=O)(=O)c1cccc(NC(=O)CNc2ccccc2)c1 [11b] has SI [ KI hCA I/KI VchαCA ] strictly less than 0.8 not met

Answer whether the molecule NS(=O)(=O)c1ccc(NCCNc2ccccc2F)cc1 has SI [ KI hCA I/KI VchαCA ] strictly less than 0.8 not met

Answer whether the molecule NS(=O)(=O)c1ccc(N2CCN(c3ccc(I)cc3)C2=O)cc1 has SI [ KI hCA I/KI VchαCA ] strictly less than 0.8 not met

Answer whether the molecule NS(=O)(=O)c1cccc(NCCNc2ccccc2)c1 [11a] has SI [ KI hCA I/KI VchαCA ] strictly less than 0.8 met

Answer whether the molecule NS(=O)(=O)c1cccc(N2CCN(c3ccc(Cl)cc3)C2=O)c1 [13c] has SI [ KI hCA I/KI VchαCA ] strictly less than 0.8 not met

Answer whether the molecule NS(=O)(=O)c1ccc(NCCNc2ccc(Cl)cc2)cc1 has SI [ KI hCA I/KI VchαCA ] strictly less than 0.8 not met

Answer whether the molecule CCCCNCCNc1cccc(S(N)(=O)=O)c1 [15a] has SI [ KI hCA I/KI VchαCA ] strictly less than 0.8 not met

Answer whether the molecule CCCCN1CCN(c2ccc(S(N)(=O)=O)cc2)C1=O has SI [ KI hCA I/KI VchαCA ] strictly less than 0.8 not met

Answer whether the molecule Cc1ccc(NCC(=O)Nc2ccc(S(N)(=O)=O)cc2)cc1 has SI [ KI hCA I/KI VchαCA ] strictly less than 0.8 met

Answer whether the molecule NS(=O)(=O)c1cccc(NC(=O)CNc2ccccc2Br)c1 [14b] has SI [ KI hCA I/KI VchαCA ] strictly less than 0.8 met

Answer whether the molecule Cc1cccc(NCC(=O)Nc2ccc(S(N)(=O)=O)cc2)n1 has SI [ KI hCA I/KI VchαCA ] strictly less than 0.8 not met

Answer whether the molecule NS(=O)(=O)c1ccc(NCCNc2ccccc2Br)cc1 has SI [ KI hCA I/KI VchαCA ] strictly less than 0.8 not met

Answer whether the molecule NS(=O)(=O)c1cccc(NCCNc2ccc(Cl)cc2)c1 [13a] has SI [ KI hCA I/KI VchαCA ] strictly less than 0.8 not met

Answer whether the molecule Cc1ccc(NCCNc2ccc(S(N)(=O)=O)cc2)cc1 has SI [ KI hCA I/KI VchαCA ] strictly less than 0.8 met

Answer whether the molecule NS(=O)(=O)c1cccc(NCCNc2ccccc2Br)c1 [14a] has SI [ KI hCA I/KI VchαCA ] strictly less than 0.8 met

Answer whether the molecule Cc1cccc(N2CCN(c3ccc(S(N)(=O)=O)cc3)C2=O)n1 has SI [ KI hCA I/KI VchαCA ] strictly less than 0.8 not met

Answer whether the molecule Cc1ccc(NCC(=O)Nc2cccc(S(N)(=O)=O)c2)cc1 [12b] has SI [ KI hCA I/KI VchαCA ] strictly less than 0.8 not met

Answer whether the molecule NS(=O)(=O)c1ccc(N2CCN(c3ccccc3)C2=O)cc1 has SI [ KI hCA I/KI VchαCA ] strictly less than 0.8 not met

Answer whether the molecule NS(=O)(=O)c1ccc(NC(=O)CNc2ccc(Cl)cc2)cc1 has SI [ KI hCA I/KI VchαCA ] strictly less than 0.8 met

Answer whether the molecule NS(=O)(=O)c1ccc(NCCNc2ccc(I)cc2)cc1 has SI [ KI hCA I/KI VchαCA ] strictly less than 0.8 not met

----------
- Tested on: VchαCA
- testProtocol: biochemical
- Assay type: biochemical
- conditionLabel: selectivity index hCA II over VchαCA
Response field label takes class 1 when SI [ KI hCA II/KI VchαCA ] is strictly below 0.5 and class 0 in all other cases.

Answer whether the compound Cc1cccc(N2CCN(c3ccc(S(N)(=O)=O)cc3)C2=O)n1 [7c] has SI [ KI hCA II/KI VchαCA ] strictly less than 0.5 class 0

Answer whether the compound Cc1ccc(N2CCN(c3ccc(S(N)(=O)=O)cc3)C2=O)cc1 [2c] has SI [ KI hCA II/KI VchαCA ] strictly less than 0.5 class 1

Answer whether the compound NS(=O)(=O)c1ccc(NC(=O)CNc2ccccc2F)cc1 [6b] has SI [ KI hCA II/KI VchαCA ] strictly less than 0.5 class 1

Answer whether the compound NS(=O)(=O)c1ccc(N2CCN(c3ccccc3)C2=O)cc1 [1c] has SI [ KI hCA II/KI VchαCA ] strictly less than 0.5 class 0

Answer whether the compound CC(C)NCCNc1ccc(S(N)(=O)=O)cc1 [10a] has SI [ KI hCA II/KI VchαCA ] strictly less than 0.5 class 0

Answer whether the compound NS(=O)(=O)c1ccc(N2CCN(c3ccc(I)cc3)C2=O)cc1 [4c] has SI [ KI hCA II/KI VchαCA ] strictly less than 0.5 class 0

Answer whether the compound Cc1ccc(NCC(=O)Nc2cccc(S(N)(=O)=O)c2)cc1 [12b] has SI [ KI hCA II/KI VchαCA ] strictly less than 0.5 class 1

Answer whether the compound Cc1cccc(NCC(=O)Nc2ccc(S(N)(=O)=O)cc2)n1 [7b] has SI [ KI hCA II/KI VchαCA ] strictly less than 0.5 class 1

Answer whether the compound NS(=O)(=O)c1ccc(NCCNc2ccccc2Br)cc1 [5a] has SI [ KI hCA II/KI VchαCA ] strictly less than 0.5 class 0

Answer whether the compound Cc1cccc(NCCNc2ccc(S(N)(=O)=O)cc2)n1 [7a] has SI [ KI hCA II/KI VchαCA ] strictly less than 0.5 class 0

Answer whether the compound Cc1ccc(NCC(=O)Nc2ccc(S(N)(=O)=O)cc2)cc1 [2b] has SI [ KI hCA II/KI VchαCA ] strictly less than 0.5 class 0

Answer whether the compound CC(C)NCC(=O)Nc1ccc(S(N)(=O)=O)cc1 [10b] has SI [ KI hCA II/KI VchαCA ] strictly less than 0.5 class 0

Answer whether the compound NS(=O)(=O)c1ccc(NC(=O)CNc2ccccc2)cc1 [1b] has SI [ KI hCA II/KI VchαCA ] strictly less than 0.5 class 1

Answer whether the compound NS(=O)(=O)c1cccc(N2CCN(c3ccccc3)C2=O)c1 [11c] has SI [ KI hCA II/KI VchαCA ] strictly less than 0.5 class 0

Answer whether the compound NS(=O)(=O)c1ccc(NC(=O)CNc2ccc(Cl)cc2)cc1 [3b] has SI [ KI hCA II/KI VchαCA ] strictly less than 0.5 class 1

Answer whether the compound CCCCN1CCN(c2cccc(S(N)(=O)=O)c2)C1=O [15c] has SI [ KI hCA II/KI VchαCA ] strictly less than 0.5 class 1

Answer whether the compound NS(=O)(=O)c1cccc(NC(=O)CNc2ccccc2)c1 [11b] has SI [ KI hCA II/KI VchαCA ] strictly less than 0.5 class 0

Answer whether the compound CCCCN1CCN(c2ccc(S(N)(=O)=O)cc2)C1=O [9c] has SI [ KI hCA II/KI VchαCA ] strictly less than 0.5 class 0

Answer whether the compound NS(=O)(=O)c1ccc(NCCNc2ccccc2)cc1 [1a] has SI [ KI hCA II/KI VchαCA ] strictly less than 0.5 class 1

Answer whether the compound CC(C)N1CCN(c2ccc(S(N)(=O)=O)cc2)C1=O [10c] has SI [ KI hCA II/KI VchαCA ] strictly less than 0.5 class 1

Answer whether the compound NS(=O)(=O)c1ccc(N2CCN(Cc3ccccc3)C2=O)cc1 [8c] has SI [ KI hCA II/KI VchαCA ] strictly less than 0.5 class 0

Answer whether the compound NS(=O)(=O)c1ccc(NCCNc2ccccc2F)cc1 [6a] has SI [ KI hCA II/KI VchαCA ] strictly less than 0.5 class 1

Answer whether the compound NS(=O)(=O)c1cccc(NCCNc2ccccc2)c1 [11a] has SI [ KI hCA II/KI VchαCA ] strictly less than 0.5 class 1

Answer whether the compound NS(=O)(=O)c1ccc(NCCNCc2ccccc2)cc1 [8a] has SI [ KI hCA II/KI VchαCA ] strictly less than 0.5 class 0

Answer whether the compound NS(=O)(=O)c1cccc(NCCNc2ccc(Cl)cc2)c1 [13a] has SI [ KI hCA II/KI VchαCA ] strictly less than 0.5 class 1

Data origin, for the record: paper PMC10120512
